Values from the Human Domainome abundance scans (Beltran et al. 2025)

B1: Mineralocorticoid receptor, residues 600 to 675; numbered along this chain, P08235 (parent)
chain: SKICLVCGDEASGCHYGVVTCGSCKVFFKRAVEGQHNYLCAGRNDCIIDKIRRKNCPACRLQKCLQAGMNLGARKS

Variants of: B1
Assay: abundance fitness (aPCA) (normalised: wild type 0, dead -1); higher = more abundant; growth selection in yeast, the domain comes from the species named
Settings: Homo sapiens
EXPERIMENTAL ENDPOINT: abundance fitness
Just the number.

The following variants have reported results that may help.
{"columns": ["MUTATION ANNOTATION", "MEASUREMENT"],
 "data": [
  ["F27P", -0.761],
  ["I48W", -0.072],
  ["C46V", -0.813]
]}

# evaluate next
Would you mind telling me what abundance fitness value was observed for D9F ?
-0.202
